The reader will find reported pIC50 values listed item by item below.
system.under.test: rat P2X7 (Rattus norvegicus (Rat), UniProt Q64663)
Sequence (Q64663 whole entry): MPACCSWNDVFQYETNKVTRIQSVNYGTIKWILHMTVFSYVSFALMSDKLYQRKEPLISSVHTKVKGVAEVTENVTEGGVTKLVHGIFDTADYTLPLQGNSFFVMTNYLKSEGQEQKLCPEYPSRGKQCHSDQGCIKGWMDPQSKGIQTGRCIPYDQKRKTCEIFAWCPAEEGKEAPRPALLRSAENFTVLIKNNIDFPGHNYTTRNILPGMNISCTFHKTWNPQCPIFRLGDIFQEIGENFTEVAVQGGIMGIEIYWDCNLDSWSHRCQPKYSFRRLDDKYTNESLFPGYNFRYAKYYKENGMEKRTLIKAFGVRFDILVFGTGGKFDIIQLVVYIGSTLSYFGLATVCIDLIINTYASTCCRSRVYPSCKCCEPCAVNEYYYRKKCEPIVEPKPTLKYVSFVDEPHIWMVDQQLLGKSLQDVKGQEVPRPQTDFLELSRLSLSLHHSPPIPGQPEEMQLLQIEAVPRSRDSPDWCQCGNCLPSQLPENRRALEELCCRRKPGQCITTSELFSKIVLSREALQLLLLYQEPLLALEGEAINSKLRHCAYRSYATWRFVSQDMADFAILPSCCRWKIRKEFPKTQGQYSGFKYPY
test.description: Ca2+ flux (FLIPR) in 1321N1 cells expressing recombinant rat P2X7 channel
experimental.context: 250 μM BzATP, Calcium-4 dye
Here pIC50 is given on a logarithmic scale as minus log10 of the concentration in mol/L.

{"columns": ["compound", "pIC50"],
 "data": [
  ["O=C(c1cccc(Cl)c1Cl)N1CCc2c(ncnc2-c2ccccc2)C1", 5.49],
  ["CN(C)c1nc2c(c(-c3ccn[nH]3)n1)CCN(C(=O)c1cccc(C(F)(F)F)c1Cl)C2", 6.26],
  ["O=C(c1cccc(Cl)c1Cl)N1CCc2c(ncnc2-n2cccn2)C1", 4.55]
]}

# query: pIC50 of entry C[C@H]1c2ncnc(-c3ccn[nH]3)c2CCN1C(=O)c1cccc(C(F)(F)F)c1Cl (single isomer, unassigned)
6.78

# query: pIC50 of entry O=C(c1ccc(Cl)c(F)c1Cl)N1CCc2c(ncnc2-c2ccn[nH]2)C1
6.47

# query: pIC50 of entry O=C(c1cccc(C(F)(F)F)c1F)N1CCc2c(ncnc2-c2ccn[nH]2)C1
6.09

# query: pIC50 of entry O=C(c1cccc(C(F)(F)F)c1Cl)N1CCc2c(ncnc2-n2nccn2)C1
7.17

# query: pIC50 of entry Cc1nc2c(c(-c3ccc(F)cc3)n1)CCN(C(=O)c1cccc(Cl)c1Cl)C2
5.07

====

system.under.test: UniProt Q64663
test.description: Radioligand binding, rat P2X7-1321N1 cell membranes, tracer tritiated A-804598
experimental.context: rat P2X7-1321N1 membranes; 1 hour at 4° C.; IC50 corrected for tracer concentration and affinity
Binarize Ki at 20 nM; below is YES, at or above is NO.

Worked cases, answers included:
{"columns": ["molecule", "system.under.test", "assigned.class"],
 "data": [
  ["O=C(c1cccc(Cl)c1Cl)N1CCc2c(ncnc2-c2cnccn2)C1 [Example 14]", "UniProt Q64663", "NO"],
  ["Cc1nc2c(c(-c3[nH]ncc3C(F)(F)F)n1)CCN(C(=O)c1cccc(C(F)(F)F)c1Cl)C2 [Example 39]", "UniProt Q64663", "YES"],
  ["O=C(c1cccc(Cl)c1Cl)N1CCc2c(ncnc2-n2nccn2)C1 [Example 107]", "UniProt Q64663", "NO"],
  ["O=C(c1cccc(C(F)(F)F)c1Cl)N1CCc2c(ncnc2-c2cscn2)C1 [Example 43]", "UniProt Q64663", "YES"],
  ["O=C(c1cccc(C(F)(F)F)c1Cl)N1CCc2c(ncnc2-c2ccccn2)C1 [Example 12]", "UniProt Q64663", "NO"]
]}

Determine whether this molecule shows Ki lower than 20 nM (ties excluded): O=C(c1cccc(Cl)c1Cl)N1CCc2c(ncnc2-c2ccccn2)C1 [Example 11]
NO

Determine whether this molecule shows Ki lower than 20 nM (ties excluded): Cc1nc2c(c(-c3[nH]ncc3F)n1)CCN(C(=O)c1cccc(C(F)(F)F)c1Cl)C2 [Example 35]
YES

Determine whether this molecule shows Ki lower than 20 nM (ties excluded): Cc1nc2c(c(-c3[nH]ncc3F)n1)CCN(C(=O)c1cccc(Cl)c1Cl)C2 [Example 36]
NO

Determine whether this molecule shows Ki lower than 20 nM (ties excluded): O=C(c1cccc(C(F)(F)F)c1Cl)N1CCc2c(ncnc2-c2ccn[nH]2)C1 [Example 18]
YES

Determine whether this molecule shows Ki lower than 20 nM (ties excluded): O=C(c1cccc(Cl)c1Cl)N1CCc2c(ncnc2-c2ccn[nH]2)C1 [Example 7]
YES

Determine whether this molecule shows Ki lower than 20 nM (ties excluded): Cc1nc2c(c(-c3ccn[nH]3)n1)CCN(C(=O)c1cccc(C(F)(F)F)c1Cl)C2 [Example 33]
YES

Determine whether this molecule shows Ki lower than 20 nM (ties excluded): O=C(c1ccc(Cl)c(F)c1Cl)N1CCc2c(ncnc2-c2ccn[nH]2)C1 [Example 20]
YES

Determine whether this molecule shows Ki lower than 20 nM (ties excluded): O=C(c1cccc(C(F)(F)F)c1Cl)N1CCc2c(ncnc2-n2nccn2)C1 [Example 108]
YES

Determine whether this molecule shows Ki lower than 20 nM (ties excluded): O=C(c1cccc(Cl)c1Cl)N1CCc2c(ncnc2-c2ccccc2)C1 [Example 2]
NO

Determine whether this molecule shows Ki lower than 20 nM (ties excluded): Cc1c(C(=O)N2CCc3c(ncnc3-c3cnccn3)C2)cccc1C(F)(F)F [Example 15]
NO

====

The reader will find reported pIC50 values listed item by item below.
system.under.test: P2X7 (Homo sapiens (Human), UniProt Q99572)
Sequence (Q99572 whole entry): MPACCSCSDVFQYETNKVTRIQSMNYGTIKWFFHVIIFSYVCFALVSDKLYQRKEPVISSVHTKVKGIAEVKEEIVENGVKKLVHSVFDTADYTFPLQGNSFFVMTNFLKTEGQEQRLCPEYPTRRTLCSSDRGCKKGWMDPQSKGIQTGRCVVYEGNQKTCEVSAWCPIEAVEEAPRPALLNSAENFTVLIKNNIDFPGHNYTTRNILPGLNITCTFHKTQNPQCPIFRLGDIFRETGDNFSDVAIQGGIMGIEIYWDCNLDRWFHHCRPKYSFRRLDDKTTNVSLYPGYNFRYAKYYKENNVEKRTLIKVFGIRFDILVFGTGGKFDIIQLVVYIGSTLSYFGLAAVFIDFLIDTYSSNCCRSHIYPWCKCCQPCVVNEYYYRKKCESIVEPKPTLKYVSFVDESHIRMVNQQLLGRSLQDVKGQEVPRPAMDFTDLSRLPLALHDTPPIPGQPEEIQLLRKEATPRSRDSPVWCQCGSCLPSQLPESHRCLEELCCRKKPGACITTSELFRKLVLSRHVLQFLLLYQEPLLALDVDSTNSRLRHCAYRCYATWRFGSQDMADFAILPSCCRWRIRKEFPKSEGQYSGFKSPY
test.description: P2X7 antagonism in human whole blood (IL-1β release, ELISA)
Type: cell-based
experimental.context: IL-1β release in human blood, LPS 30 ng/ml + Bz-ATP 1 mM
Here pIC50 is given on a logarithmic scale as minus log10 of the concentration in mol/L.

Solved cases below.
{"columns": ["compound", "pIC50"],
 "data": [
  ["O=C(c1cccc(C(F)(F)F)c1Cl)N1CCc2c(ncnc2-c2ccccn2)C1", 5.70],
  ["O=C(c1cccc(Cl)c1Cl)N1CCc2c(ncnc2-n2nccn2)C1 [Example 107]", 5.95],
  ["Cc1nc2c(c(-c3ccn[nH]3)n1)CCN(C(=O)c1cccc(C(F)(F)F)c1Cl)C2", 5.95],
  ["O=C(c1ccc(Cl)c(F)c1Cl)N1CCc2c(ncnc2-c2ccn[nH]2)C1", 5.91],
  ["O=C(c1cccc(Cl)c1Cl)N1CCc2c(ncnc2-c2ccn[nH]2)C1", 6.25],
  ["O=C(c1cccc(Cl)c1Cl)N1CCc2c(ncnc2-n2nccn2)C1 [Example 23]", 5.95]
]}

# get_value(readout= pIC50, system= P2X7 (Homo sapiens (Human), UniProt Q99572)) for Cn1ccc(-c2ncnc3c2CCN(C(=O)c2cccc(C(F)(F)F)c2Cl)C3)n1
6.20

====

system.under.test: rat P2X7 (Rattus norvegicus (Rat), UniProt Q64663)
test.description: Ca2+ flux (FLIPR) in 1321N1 cells expressing recombinant rat P2X7 channel
experimental.context: 250 μM BzATP, Calcium-4 dye
Description: 1321N1 cells expressing the recombinant human, rat or mouse P2X7 channel was cultured in HyQ DME/(HyClone/Dulbecco's Modified Eagle Medium) high glucose supplemented with 10% Fetal Bovine Serum (FBS) and appropriate selection marker. Cells were seeded at a density of 25000 cells/well (96-well clear bottom black walled plates) in 100 μl volume/well. […] The fluorescence change was measured 180 seconds after adding the agonist.
readout: pIC50
Here pIC50 is given on a logarithmic scale as minus log10 of the concentration in mol/L.

Solved cases below.
{"columns": ["compound", "value.observed"],
 "data": [
  ["C[C@@H]1c2ncnc(-c3ccn[nH]3)c2CCN1C(=O)c1cccc(C(F)(F)F)c1Cl (single isomer, unassigned)", 8.04],
  ["O=C(c1cccc(C(F)(F)F)c1Cl)N1CCc2c(ncnc2-n2cnnc2)C1", 6.31]
]}

Note: attention shifts to another entry.
# query: pIC50 of entry C[C@H]1c2ncnc(-c3ccn[nH]3)c2CCN1C(=O)c1ccc(F)c(Cl)c1Cl (single isomer, unassigned)
5.82

====

system.under.test: P2X7 (Homo sapiens (Human), UniProt Q99572)
test.description: Ca2+ flux (FLIPR) in 1321N1 cells expressing recombinant human P2X7 channel
Format: cell-based
experimental.context: 250 μM BzATP, Calcium-4 dye
Binarize IC50 at 5 µM; below is yes (1), at or above is no (0).

Worked cases, answers included:
{"columns": ["compound", "system.under.test", "assigned.class"],
 "data": [
  ["O=C(c1cc(F)c(F)cc1Cl)N1CCc2c(ncnc2-c2cnccn2)C1", "P2X7 (Homo sapiens (Human), UniProt Q99572)", "no (0)"],
  ["Cc1nc2c(c(-c3ccn[nH]3)n1)C[C@@H](C)N(C(=O)c1ccc(F)cc1F)C2 (single isomer, unassigned)", "P2X7 (Homo sapiens (Human), UniProt Q99572)", "no (0)"],
  ["COCCn1ccc(-c2nc(C)nc3c2C[C@H](C)N(C(=O)c2cccc(C(F)(F)F)c2Cl)C3)n1 (single isomer, unassigned)", "P2X7 (Homo sapiens (Human), UniProt Q99572)", "no (0)"],
  ["Cn1cc(-c2ncnc3c2CCN(C(=O)c2cccc(Cl)c2Cl)C3)cn1", "P2X7 (Homo sapiens (Human), UniProt Q99572)", "no (0)"],
  ["Cc1ccc(C(=O)N2Cc3nc(C)nc(-c4ccn[nH]4)c3CC2C)c(C)c1 (stereo not shown)", "P2X7 (Homo sapiens (Human), UniProt Q99572)", "no (0)"]
]}

Determine whether this compound shows IC50 lower than 5 µM (ties excluded): Cc1nc2c(c(-c3ccn[nH]3)n1)C[C@H](C)N(C(=O)c1cccc(C(F)(F)F)c1C)C2 (single isomer, unassigned)
yes (1)
